# System: MALME-3M melanoma
# test-method-notes: NCI tumour cell line growth inhibition, 48 h
observed-property: TGI

Reported TGI ( COc1ccc(Cl)cc1NC(=O)c1cccc([N+](=O)[O-])c1O ) = 19.3 µM

Reported TGI ( COC(=O)C1N=CSCC1(C)O (stereo not given) ) = > 100 µM

Reported TGI ( CC(C)(C)[Si](C)(C)OCC1C=CC(n2cnc3c(N)ncnc32)O1 (stereo not given) ) = > 100 µM

Reported TGI ( COc1ccc(/C=C(/C)[N+](=O)[O-])cc1 ) = 4.59 µM

Reported TGI ( COC(=O)NC(=O)c1cn(CCCOC(=O)CCCCCCCCC(=O)OCCCn2cc(C(=O)NC(=O)OC)c(=O)[nH]c2=O)c(=O)[nH]c1=O ) = > 100 µM

Reported TGI ( O=C(NCCNCCNC(=O)C(F)(F)F)C(F)(F)F ) = > 100 µM

Reported TGI ( O=C1c2ccccc2C(C2c3ccccc3C(=O)c3cc(Br)ccc32)c2ccc(Br)cc21 (stereo not given) ) = > 100 µM

Reported TGI ( O=C(O)c1cc(O)c2c(c1)C([C@@H]1c3cccc(O)c3C(=O)c3c(O)cc(C(=O)O)cc31)c1cccc(O)c1C2=O (stereo not given in full) ) = 44.7 µM

Reported TGI ( Cc1[nH]nc2c1C(=O)C=C(N(CCO)c1ccccc1)C2=O ) = > 100 µM

Reported TGI ( O=C(O)Cn1c(=O)[nH]c(=O)c2[nH]cnc21 ) = > 100 µM

====

# Tested on: HL-60(TB) leukemia
# test-method-notes: NCI tumour cell line growth inhibition, 48 h
observed-property: TGI (µM)
Entry rule: numbers only, all in µM.

Reported TGI ( CC(C)(C)OC(=O)CN1CCc2c(sc3ncnc(N/N=C/c4cccc5ccccc45)c23)C1 ) = 19.2

Reported TGI ( CC1(C)CCC[C@@]2(C)C1C(=O)[C@@H]1O[C@]1(C)[C@@H]2CO (some centres undefined) ) = 51.8

Reported TGI ( COc1ccc(/C=C/C(=O)c2cc3c(N)c(C(=O)Nc4ccccc4C)sc3nc2C)cc1 ) = 1.99

Reported TGI ( O=C(CNc1ncco1)Nc1ccc(S(=O)(=O)c2ccc(NC(=O)CNc3ncco3)cc2)cc1 ) = 21.3

====

Assign TGI to each entry below.
# System: A498 renal
# test-method-notes: NCI tumour cell line growth inhibition, 48 h

Reported TGI ( COC(=O)/C(=C/c1ccc(OC)cc1)NC(=O)c1ccccc1 ) = > 100 µM

Reported TGI ( CCCSc1ccc2[nH]c(N3C(=O)/C(=C/c4cc(OC)c(OC)c(OC)c4)N=C3c3ccccc3)cc2c1 ) = > 25.8 µM

Reported TGI ( Cc1sc(N)c(S(=O)(=O)c2ccccc2)c1C ) = > 100 µM

Reported TGI ( NC(=S)N1N=C(c2ccccc2O)CC1c1ccccc1 (stereo not given) ) = 30.1 µM

Reported TGI ( CC(=O)OC1CCC2(C)C(=CCC3C4CCC5(OC6CC(C)CN(C(C)=O)C6C5C)C(C)=C4C(=O)C32)C1 (stereo not given) ) = 31.2 µM

Reported TGI ( C#C[C@]1(O)CC[C@H]2[C@@H]3CCC4=C/C(=N\OCCN(CC)CC)CC[C@]4(C)[C@H]3CC[C@@]21C ) = 28.9 µM

Reported TGI ( O=c1[nH]c(Nc2ccc(Cl)cc2)nc2nc[nH]c12 ) = > 100 µM

Reported TGI ( CC(=O)c1sc(Nc2ccc(Cl)c(Cl)c2)nc1C ) = > 100 µM

Reported TGI ( O=C(Nc1ccccc1O)c1ccc(CNC(=O)c2sccc2Nc2ccnc(C(F)(F)F)c2)cc1 ) = 9.7 µM

Reported TGI ( CO[C@@]12C[C@H]3[C@@H]([C@@H](O)[C@@H](OC(=O)/C=C/c4ccccc4)[C@@]4(O)C(C)(C)CCC[C@]34C)[C@@H](C)C1=CC(=O)O2 ) = 26.3 µM

Reported TGI ( C/C(=N\Nc1nc2ccccc2o1)c1cc(C)ncn1 ) = > 100 µM

Reported TGI ( O=S(=O)(NC1OCCCC1I)c1ccccc1 (stereo not given) ) = > 100 µM

Reported TGI ( Nc1ccc(Oc2ccc(C34CC5CC(C3)CC(c3ccc(Oc6ccc(N)cc6)cc3)(C5)C4)cc2)cc1 ) = 27.3 µM

Reported TGI ( O=C(CNc1ncco1)Nc1ccc(S(=O)(=O)c2ccc(NC(=O)CNc3ncco3)cc2)cc1 ) = 62.7 µM

Reported TGI ( CCC1(N=[N+]=[N-])C(=O)c2ccccc2N(c2ccccc2)C1=O (stereo not given) ) = > 100 µM

Reported TGI ( Clc1ccc(C=NC23CC4CC(CC(C4)C2)C3)cc1Cl ) = > 10 µM

Reported TGI ( COc1cc2c(c(OC)c1OC)C(=O)[C@H](Br)[C@H]2NC(=O)NCCCl ) = > 100 µM

Reported TGI ( COc1ccc(C2c3cc4c(cc3OC(O)(CO)C2C(=O)O)OCO4)cc1 (stereo not given) (tested in a mixture with another compound) ) = > 100 µM

Reported TGI ( O=C(O)C(O)C(O)C(O)C(=O)CO (stereo not given) ) = > 100 µM

Reported TGI ( CCc1c(O)c2c(c(O)c1C(C)=O)C(=O)c1c(cc(O)c(C(=O)O)c1C(=O)O)C2=O ) = > 100 µM

====

# Tested on: SN12C renal
# test-method-notes: NCI tumour cell line growth inhibition, 48 h
observed-property: TGI (µM)
Entry rule: numbers only, all in µM.

Reported TGI ( CC(O)C(O)C(O)C(/C=N\Nc1ccccc1)=N/Nc1ccccc1 (stereo not drawn) ) = 34.5

Reported TGI ( C[S+](C)CC(=O)c1ccc2c(c1)Sc1ccccc1O2 ) = 36.3

Reported TGI ( O=[N+]([O-])c1ccc2c(c1)nc(Cc1ccc(Cl)cc1)n2C[C@@H]1CCCN2CCCCC12 (stereo partly drawn) ) = 27.6

Reported TGI ( CC1(C)CCC[C@]2(C)[C@@H]1CC[C@@]13O[C@@H]1C1=C(CO)C(=O)OC1=C[C@@H]23 ) = 25.9

Reported TGI ( CO[C@@]12C[C@H]3[C@@H]([C@@H](O)[C@@H](OC(=O)/C=C/c4ccccc4)[C@@]4(O)C(C)(C)CCC[C@]34C)[C@@H](C)C1=CC(=O)O2 ) = 19.5

Reported TGI ( CC(=O)c1ccc2c(c1)N(CCCN1CCN(CCO)CC1)c1ccccc1C2 ) = 31.2

Reported TGI ( C1=C(c2ccccc2)C(c2ccc(OCCN3CCCCC3)cc2)Oc2ccccc21 (stereo not drawn) ) = 3.73

Reported TGI ( COC1CC(CC2CCC(C)C(C(C)C(=O)O)O2)OC2(OC(C)(C3CCC(C)(C4OC(C5OC(O)(CO)C(C)CC5C)CC4C)O3)CC2C)C1C (stereo not drawn) ) = 23.7

====

# Tested on: SNB-19 CNS
# test-method-notes: NCI tumour cell line growth inhibition, 48 h; in the data active = GI50 below about 0.43 µM; inactive = the rest
Pick from active, inactive when you respond.

Could you please tell me the result logged for Nc1ccc2ccc(NS(=O)(=O)N3CCCCC3)cc2c1 in this assay?
inactive

Could you please tell me the result logged for OCC#Cc1ccccc1C#Cc1ccc(C#Cc2ccccc2C#CCO)s1 in this assay?
inactive

Could you please tell me the result logged for C#Cc1cccc(Oc2ccc(NC(=O)CCl)cc2)c1 in this assay?
inactive

Could you please tell me the result logged for C[C@@H](Oc1ccc2[nH]nc(/C=C/c3cnn(CCO)c3)c2c1)c1c(Cl)cncc1Cl in this assay?
active

Could you please tell me the result logged for C/C1=C/C(=O)O[C@@H]2C[C@@H](CC[C@H](C)/C=C\C=C\CC1)O[C@@](OCCc1ccccc1)([C@@H]1CSC(=O)N1)C2 in this assay?
active

Could you please tell me the result logged for CCCN1C(=O)CSC1=Nc1ccc2cc3ccc(N=C4SCC(=O)N4CCC)cc3nc2c1 in this assay?
inactive

Could you please tell me the result logged for Cc1ccc2c(c1)O/C(=C\c1ccc([N+](=O)[O-])o1)C2=O in this assay?
inactive

Could you please tell me the result logged for C[C@]12C3CC[C@@]4(CO)C[C@]3(CCC1[C@](C)(C(=O)O)CC[C@@H]2O)CC4=O (stereo not given in full) in this assay?
inactive

Could you please tell me the result logged for Cc1cc(C)n(C(=O)c2nn(-c3ccc(Cl)cc3)cc2O)n1 in this assay?
inactive

Could you please tell me the result logged for N#C/C(N)=C(\C#N)N=Cc1csc2ccccc12 in this assay?
inactive

====

# Test system: SNB-19 CNS
# test-method-notes: NCI tumour cell line growth inhibition, 48 h
observed-property: TGI

Reported TGI ( O=C(O)Cn1c(=O)[nH]c(=O)c2[nH]cnc21 ) = > 100 µM

Reported TGI ( O=S(=O)(NCCNc1cc(-c2cn(-c3ccccc3)nc2-c2cccc(O)c2)ccn1)c1ccc(Cl)cc1 ) = 63.7 µM

Reported TGI ( C[C@@H](Oc1ccc2[nH]nc(/C=C/c3cnn(CCO)c3)c2c1)c1c(Cl)cncc1Cl ) = 3.52 µM

Reported TGI ( N#Cc1c(N)nc2c(c1-c1ccc(Br)cc1)CSc1ccccc1-2 ) = > 100 µM

Reported TGI ( O=C(Nc1ccc(Cl)cc1)c1cc(S(=O)(=O)Nc2nnc(-c3ccccc3)c(-c3ccccc3)n2)c(SCc2ccccc2)cc1Cl ) = > 67 µM

Reported TGI ( CN1CCN(c2ccc(NC3=C(Cl)C(=O)c4ncccc4C3=O)cc2C#N)CC1 ) = 23 µM

Reported TGI ( CN1CCN(CCNc2ccc(CO)c3sc4ccccc4c(=O)c23)CC1 ) = 36.1 µM

Reported TGI ( CC(=O)OC1CC[C@@]2(C)C(C1)CC(OC(C)=O)[C@@H]1C2CC(OC(C)=O)[C@]2(C)C(C(C)CC=C(c3ccc(Cl)cc3)c3ccc(Cl)cc3)CCC12 (stereo partly specified) ) = > 100 µM

Reported TGI ( CCCCCCNc1nc(N2CCOCC2)c2[nH]c(NCCCCCC)nc2n1 ) = 3.41 µM

Reported TGI ( CNC(=O)CNC(=O)C(Cc1ccc(NC(=O)CCCCC(C)=O)cc1)NC(=O)C(CCC(=O)OCc1ccccc1)NC(=O)OC(C)(C)C (stereo unspecified) ) = > 100 µM

Reported TGI ( CC1(C)CCC[C@]2(C)[C@@H]1CC[C@@]13O[C@@H]1C1=C(CO)C(=O)OC1=C[C@@H]23 ) = 28.7 µM

Reported TGI ( COc1ccc2c(c1)CCC1=C/C(=N\NC(N)=O)CCC12C (stereo unspecified) ) = > 10 µM

Reported TGI ( N[C@@H]1CCCC[C@@H]1N.O=C([O-])CN(CP(=O)([O-])[O-])CP(=O)([O-])[O-].[Pt+2] ) = > 100 µM

Reported TGI ( COc1ccc(C(=O)COc2cccc(/C=C3\CSc4ccc(Cl)cc4C3=O)c2)cc1 ) = 20.1 µM

Reported TGI ( N#C/C(N)=C(\C#N)N=Cc1csc2ccccc12 ) = 71.9 µM

Reported TGI ( COC(=O)c1nc(-c2nc(CCNC(=O)OC(C)(C)C)sc2Cl)sc1Cl ) = > 100 µM

Reported TGI ( Nc1ccc(-c2nc3cc(F)ccc3s2)cc1CO ) = > 90.6 µM

Reported TGI ( c1cc(-c2cn[nH]c2)cc(-c2cn[nH]c2)c1 ) = > 100 µM

Reported TGI ( O=S(=O)(O)c1cc(N=Nc2cc(S(=O)(=O)O)c3cccnc3c2O)ccc1/C=C/c1ccc(N=Nc2cc(S(=O)(=O)O)c3cccnc3c2O)cc1S(=O)(=O)O ) = > 100 µM

Reported TGI ( COc1cc2c(cc1C)NC(=O)/C2=C/c1c(Cl)n(-c2ccccc2)c2ccccc12 ) = > 100 µM

Reported TGI ( COc1cc(C2=NN(c3ccc(S(N)(=O)=O)cc3)C(c3ccc(Cl)cc3)C2)cc(OC)c1OC (stereo unspecified) ) = > 100 µM

Reported TGI ( CC1(C)CC(=O)c2c(nc(SSc3nc4c(c(-c5ccc(Br)cc5)c3C#N)C(=O)CC(C)(C)C4)c(C#N)c2-c2ccc(Br)cc2)C1 ) = > 10 µM

Reported TGI ( C(=C\c1nccc2c1[nH]c1ccccc12)/c1ccccc1 ) = 48.4 µM

Reported TGI ( Cn1c(=O)cc(NCCc2ccccc2)[nH]c1=O ) = > 100 µM

Reported TGI ( CCSC1=N/C(=C/c2ccccc2O)C(=O)N1 ) = > 100 µM

Reported TGI ( Brc1ccc2c(c1)C1C(CO2)C(c2ccccc2)=NN1c1ccccc1 (stereo unspecified) ) = > 100 µM

Reported TGI ( C1=C(c2ccccc2)C(c2ccc(OCCN3CCCCC3)cc2)Oc2ccccc21 (stereo unspecified) ) = 4.16 µM

Reported TGI ( CCN(CC)c1ccc2cc(C(=O)Nc3nc(C45CC6CC(CC(C6)C4)C5)cs3)c(=O)oc2c1 ) = > 100 µM

Reported TGI ( CC(/C=N\NC(=S)N(C)C)=N/NC(=S)N(C)C ) = > 100 µM

Reported TGI ( CC(=O)c1cc2c(c3ccsc13)-c1ccccc1CC2 ) = > 100 µM

Reported TGI ( COC(=O)CCc1cccnc1/C=N/O ) = > 100 µM

Reported TGI ( O=C1c2ccccc2C(C2c3ccccc3C(=O)c3cc(Br)ccc32)c2ccc(Br)cc21 (stereo unspecified) ) = > 100 µM

Reported TGI ( Cc1cc(N(CCC#N)CCC#N)ccc1N=Nc1cccc(Cl)c1 ) = > 100 µM

Reported TGI ( CC(C)(C)[Si](C)(C)OCC1C=CC(n2cnc3c(N)ncnc32)O1 (stereo unspecified) ) = > 100 µM

Reported TGI ( O=S(=O)(NC1OCCCC1I)c1ccccc1 (stereo unspecified) ) = > 100 µM

Reported TGI ( Cc1cnoc1NS(=O)(=O)c1ccc(Nc2nnc(/C=C/c3c(O)ccc4ccccc34)c(=O)n2N)cc1 ) = > 100 µM
